- Test system: M14
- protocol.notes: NCI tumour cell line growth inhibition, 48 h
The source made the active and inactive calls. Cut-off read from the data, not from the text of the source: active = GI50 up to about 1.1 µM and inactive = higher.
In this section, each of the molecules is paired with its reported GI50.

Solved cases below.
molecule=O=C1c2ccccc2S(=O)(=O)c2c1cccc2[N+](=O)[O-] target_under_test=M14 value_measured="1.61 µM (inactive)"
molecule=S=C(Nc1ccccc1)c1ccc(CN2CCCCC2)s1 target_under_test=M14 value_measured="16 µM (inactive)"
molecule=COc1cc(/C=N\c2ccc(C(C)C)cc2)cc(OC)c1OC target_under_test=M14 value_measured="> 100 µM (inactive)"

Query :: Any idea what its GI50 is? The molecule is `Nc1c(-c2ccccc2)c2ccc([N+](=O)[O-])cc2c(=O)n1-c1cccc(C(=O)O)c1`
Result :: > 100 µM (inactive)

Query :: Any idea what its GI50 is? The molecule is Cc1cc2c(cc1Br)C1(C)CCC(C)C1(C)O2 (stereo unspecified)
Result :: 32.3 µM (inactive)

Query :: Any idea what its GI50 is? The molecule is `O=C(O)CCNC(=O)c1cc(N(CCBr)CCBr)c([N+](=O)[O-])cc1[N+](=O)[O-]`
Result :: > 100 µM (inactive)

Query :: Any idea what its GI50 is? The molecule is `O=C(c1ccc(Cl)c(Cl)c1)N(Cc1cccnc1)C(=S)N(Cc1cccnc1)C(=O)c1ccc(Cl)c(Cl)c1`
Result :: 21.2 µM (inactive)

Query :: Any idea what its GI50 is? The molecule is `Cc1cc(C)n(-c2nc(C)c(CCO)c(=O)[nH]2)n1`
Result :: > 100 µM (inactive)
